System: PMA-stimulated P90RSK(Ser380) phosphorylation in HepG2 cells
Experimental protocol: Cellular P90RSK(Ser380) Phosphorylation Assay
Format: cell-based
Details: Homo sapiens, 1.5 h compound incubation, PMA stimulation, pP90RSK(Ser380) normalized to GAPDH, read-out: Cell Assay IC50
Please respond with reported pIC50 for every item in the list.
pIC50 is a log-scale quantity: -log10 of the concentration expressed in molar.

pIC50 reading for CC(C)Nc1ncc2c(n1)CN(C(=O)N[C@H](CCC#N)c1ccc(Cl)c(Cl)c1)CC2 [Compound I-104] : 7.23

Recorded result, O=C(N[C@H](CO)c1ccc(F)c(Cl)c1)N1CCc2cnc(Nc3ccc(Cl)c(F)c3)nc2C1 [II-61] , pIC50: 4.67

In plain terms, O=C(N[C@@H](c1ccc(Cl)c(F)c1)[C@@H]1CNCCO1)N1CCc2cnc(NC3CCOCC3)nc2C1 (mixture of isomers) [Compound I-144] has a documented pIC50 of 7.04

Lab note: measured pIC50 of C[C@@H](NC(=O)N1CCc2cnc(NC3CC(=O)N(C)C3)nc2C1)c1ccc(Cl)c(F)c1 (some centres unmarked) [II-267] was 4.55

// field: pIC50; key: N#CC[C@@H](NC(=O)N1CCc2cnc(NC3CCOCC3)nc2C1)c1ccc(F)c(Cl)c1 [Compound I-59] ; value = 7.07

* * *

Test system: PMA-stimulated P90RSK(Ser380) phosphorylation in HepG2 cells
Experimental protocol: Cellular P90RSK(Ser380) Phosphorylation Assay
Assay type: cell-based
Details: Homo sapiens, 1.5 h compound incubation, PMA stimulation, pP90RSK(Ser380) normalized to GAPDH, read-out: Cell Assay IC50
Recorded metric: IC50 (nM)
Report only the number, with the unit nM understood.

Given item C[C@@H](CO)Nc1ncc2c(n1)CN(C(=O)NCc1ccc(Cl)c(Cl)c1)CC2 , the value recorded as its IC50 is 103

Documented IC50 of O=C(N[C@@H](c1ccc(Cl)c(F)c1)c1ccno1)N1CCc2cnc(NC3CCOCC3)nc2C1 : 235

Looking up CC(C)Nc1ncc2c(n1)CN(C(=O)N[C@H](CCO)c1ccc(C(F)(F)F)c(F)c1)CC2 , I see its IC50 listed as 208

Recorded IC50 (compound O=C(NC(c1ccc(Cl)c(F)c1)c1nnco1)N1CCc2cnc(NC3CCOCC3)nc2C1 (stereo in doubt) [II-359] ): 30

* * *

I'd appreciate it if you could supply pIC50 values for the items below.
Tested on: PMA-stimulated P90RSK(Ser380) phosphorylation in HepG2 cells
Experimental protocol: Cellular P90RSK(Ser380) Phosphorylation Assay
Assay type: cell-based
Details: Homo sapiens, 1.5 h compound incubation, PMA stimulation, pP90RSK(Ser380) normalized to GAPDH, read-out: Cell Assay IC50
Please note pIC50 is a logarithmic value: minus log10 of concentration in mol/L. Answer with that number alone.

The value of pIC50 measured for the compound O=C(N1CCc2cnc(NC3CCOCC3)nc2C1)N1CCC[C@H]1c1ccccc1 turned out to be 5.00

Lab note: C[C@@H](CO)Nc1ncc2c(n1)CN(C(=O)N[C@H](CCO)c1ccc(Cl)c(Cl)c1)CC2 gave pIC50 of 7.26

Lab note: CC(C)Nc1ncc2c(n1)CN(C(=O)N[C@@H](c1ccc(Cl)c(Cl)c1)[C@H](O)CO)CC2 gave pIC50 of 6.96

Memo: CC(C)Nc1ncc2c(n1)CN(C(=O)N[C@@H](c1ccc(F)c(Cl)c1)[C@H](C)O)CC2 , reported pIC50: 7.06

* * *

Measurement target: human ERK-2 (Mitogen Activated Kinase 1) (Homo sapiens (Human))
Sequence (P28482 8-360): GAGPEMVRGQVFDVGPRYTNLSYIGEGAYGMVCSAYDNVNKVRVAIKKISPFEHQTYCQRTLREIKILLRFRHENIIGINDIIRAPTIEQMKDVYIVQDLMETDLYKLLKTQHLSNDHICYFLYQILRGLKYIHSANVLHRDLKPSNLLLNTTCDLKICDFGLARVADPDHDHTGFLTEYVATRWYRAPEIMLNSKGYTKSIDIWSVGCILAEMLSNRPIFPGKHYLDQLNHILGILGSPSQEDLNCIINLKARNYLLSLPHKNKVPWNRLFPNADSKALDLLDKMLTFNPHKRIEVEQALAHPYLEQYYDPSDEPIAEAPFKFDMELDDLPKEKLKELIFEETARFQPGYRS
Experimental protocol: ERK-2 Enzymatic Assay
Details: 5 nM ERK-2, 25 μM ATP, Omnia peptide S/T17; read-out: ERK Inhibition IC50
Counter-ions that a name gives are not always drawn.
// classify: if (IC50 < 2 nM) yes else no

[in] Is it true that IC50 reported for CC(C)Nc1ncc2c(n1)CN(C(=O)N[C@H](CN)c1ccc(F)c(Cl)c1)CC2 is less than 2 nM?
[out] yes

[in] Consider C[C@@H](NC(=O)N1CCc2cnc(N[C@H]3C[C@@H](O)C3)nc2C1)c1ccc(Cl)c(Cl)c1 . Does its IC50 lie strictly below 2 nM?
[out] no

[in] Lab note: confirm whether the reported IC50 for this molecule is below 2 nM, equality not counting. molecule: C[C@@H](NC(=O)N1CCc2cnc(N[C@H]3CCC(F)(F)C3)nc2C1)c1ccc(Cl)c(Cl)c1
[out] no

[in] Given CN1C[C@@H](NC(=O)N2CCc3cnc(NC4CCOCC4)nc3C2)[C@H](c2ccc(Cl)c(F)c2)C1 , is recorded IC50 strictly lower than 2 nM?
[out] no

[in] IC50 under 2 nM? Item: COCC[C@@H](NC(=O)N1CCc2cnc(NC3CCOCC3)nc2C1)c1ccc(Cl)c(Cl)c1
[out] yes

[in] Threshold test, IC50 < 2 nM: Cn1cc(C(NC(=O)N2CCc3cnc(NC4CCOCC4)nc3C2)c2ccc(Cl)c(F)c2)cn1 (stereo not drawn)
[out] yes

[in] Is 2 nM strictly greater than the molecule's reported IC50? molecule: CNC[C@@H](CC(=O)N1CCc2cnc(NC(C)C)nc2C1)c1ccc(Cl)c(F)c1
[out] no

[in] For CNC[C@@H](NC(=O)N1CCc2cnc(Nc3ccc(F)cc3)nc2C1)c1ccc(F)c(Cl)c1 , is the recorded IC50 below the cut-off of 2 nM?
[out] no

[in] In plain terms, does O=C(N1CCc2cnc(NC3CCOCC3)nc2C1)N1CCCC1c1ccc(F)cc1 (stereo not drawn) come in under 2 nM for IC50?
[out] no

[in] Criterion: IC50 strictly below 2 nM. Is it met by O=C(NC(c1ccc(Cl)c(F)c1)c1nnco1)N1CCc2cnc(NC3CCOCC3)nc2C1 (stereo in doubt) [II-359] ?
[out] no

[in] Hello, is IC50 of the following molecule strictly smaller than 2 nM? CNC(=O)C(NC(=O)N1CCc2cnc(NC(C)C)nc2C1)c1ccc(F)c(Cl)c1 (stereo not drawn)
[out] no

[in] State whether 2 nM exceeds IC50 recorded for C[C@@H](CO)Nc1ncc2c(n1)CN(C(=O)NCc1ccc(Cl)c(Cl)c1)CC2 .
[out] no

[in] Is the reported IC50 for C[C@@H](CO)Nc1ncc2c(n1)CN(C(=O)N[C@H](CCO)c1ccc(Cl)c(Cl)c1)CC2 strictly below 2 nM?
[out] yes

[in] Hello, I'm reviewing records and need to know if IC50 of COCCNC[C@@H](NC(=O)N1CCc2cnc(NC(C)C)nc2C1)c1ccc(F)c(Cl)c1 is below 2 nM. Could you check?
[out] no

[in] Determine whether this molecule shows IC50 lower than 2 nM (ties excluded): O=C(NC(c1ccc(Cl)c(F)c1)c1nnco1)N1CCc2cnc(NC3CCOCC3)nc2C1 (stereo not drawn) [Compound I-9]
[out] no

[in] Criterion: IC50 strictly below 2 nM. Is it met by CC(C)Nc1ncc2c(n1)CN(C(=O)NC1(c3ccc(Cl)c(Cl)c3)CCNCC1)CC2 ?
[out] no

[in] Please let me know if O=C(N[C@@H](c1ccc(Cl)c(F)c1)c1ccno1)N1CCc2cnc(NC3CCOCC3)nc2C1 shows IC50 below 2 nM.
[out] no

[in] Criterion: IC50 strictly below 2 nM. Is it met by CC(=O)N1CCC[C@H]1[C@@H](NC(=O)N1CCc2cnc(NC(C)C)nc2C1)c1ccc(Cl)c(F)c1 ?
[out] no

[in] Hello, I'm reviewing records and need to know if IC50 of CC[C@@H](NC(=O)N1CCc2cnc(N[C@H]3CC[C@H](O)C3)nc2C1)c1ccc(C(F)(F)F)c(F)c1 is below 2 nM. Could you check?
[out] no

[in] Identify whether the molecule O=C(NCc1ccc2cc[nH]c2c1)N1CCc2cnc(NC3CCOCC3)nc2C1 records IC50 below 2 nM.
[out] no

[in] Consider the molecule CNC[C@@H](NC(=O)N1CCc2cnc(Nc3ccc(F)cc3)nc2C1)c1ccc(C(F)(F)F)c(F)c1 [Compound I-68, hydrochloride] . Is its IC50 strictly less than 2 nM?
[out] no

[in] Here's an entry: C[C@@H](NC(=O)N1CCc2cnc(NC3CC(F)(F)C3)nc2C1)c1ccc(Cl)c(Cl)c1 . Is its IC50 below 2 nM?
[out] no

[in] Hello, I'm reviewing records and need to know if IC50 of Cc1nccc(Nc2ncc3c(n2)CN(C(=O)N[C@H](C)c2ccc(Cl)c(Cl)c2)CC3)n1 is below 2 nM. Could you check?
[out] no

[in] Is it true that IC50 reported for O=C(N[C@@H](c1ccc(Cl)c(Cl)c1)c1cnco1)N1CCc2cnc(NC3CCOCC3)nc2C1 is less than 2 nM?
[out] yes
